Each entry below carries its measured IC50, system: p33^cdk2 (cyclin E) (Homo sapiens).
PARAMETER: IC50 (µM)

P. COc1ccc(CNc2nc(NC3CCCCC3N)nc3c2nnn3C(C)C)cc1O (centres unmarked)
Q. CC(C)n1nnc2c(Nc3cccc(Cl)c3)nc(NC3CCC(N)CC3)nc21 (centres unmarked)
Q: Compare P and Q by numeric IC50 and name the larger one. The response must carry the label of the picked entry.
Ans: P

A. CC[C@H](CO)Nc1nc(NCc2ccccc2)c2nnn(C(C)C)c2n1
B. CC(C)n1nnc2c(NCc3ccccc3)nc(NCCCO)nc21
Q: Pick one, A or B : lowest reported IC50. The response must carry the label of the picked entry.
Ans: A
